Test system: Escherichia coli TOP10;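 also: peptides expressed intracellularly from a pBAD plasmid library in pooled LB shake-flask culture, induced with 0.3% L-arabinose, DNA abundance read by NGS, three biological replicates, DESeq2 with apeglm shrinkage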
Assay: shrunken log2 fold change of peptide-encoding DNA abundance (4.5 h post-induction vs induction); higher = less antimicrobial activity (less host growth inhibition)
Conditions: time post-induction: 4.5 h; library: site-saturation at positions 5, 18, 19, 20
REPORTED_PROPERTY: shrunken log2 fold change
No unit in the answer, only the number.

The value of shrunken log2 fold change measured for the sequence `RRIRQRPPRLPRPRPRPITAPRP` turned out to be -0.503

The value of shrunken log2 fold change measured for the sequence `RRIRPRPPRLPRPRPRPAFWPRP` turned out to be 0.459

The value of shrunken log2 fold change measured for the sequence `RRIRVRPPRLPRPRPRPYSTPRP` turned out to be -0.00968

The value of shrunken log2 fold change measured for the sequence `RRIRSRPPRLPRPRPRPPNFPRP` turned out to be 0.291

The value of shrunken log2 fold change measured for the sequence `RRIRHRPPRLPRPRPRPVAYPRP` turned out to be -0.332

The value of shrunken log2 fold change measured for the sequence `RRIRFRPPRLPRPRPRPSIQPRP` turned out to be -0.0528

The value of shrunken log2 fold change measured for the sequence `RRIRIRPPRLPRPRPRPTEPPRP` turned out to be 0.0374

The value of shrunken log2 fold change measured for the sequence `RRIRSRPPRLPRPRPRPHAWPRP` turned out to be 0.149
